- TARGET: Aurora B/Incenp (Homo sapiens (Human), UniProt Q96GD4)
- Sequence (Q96GD4 whole entry, the tested form may be a part): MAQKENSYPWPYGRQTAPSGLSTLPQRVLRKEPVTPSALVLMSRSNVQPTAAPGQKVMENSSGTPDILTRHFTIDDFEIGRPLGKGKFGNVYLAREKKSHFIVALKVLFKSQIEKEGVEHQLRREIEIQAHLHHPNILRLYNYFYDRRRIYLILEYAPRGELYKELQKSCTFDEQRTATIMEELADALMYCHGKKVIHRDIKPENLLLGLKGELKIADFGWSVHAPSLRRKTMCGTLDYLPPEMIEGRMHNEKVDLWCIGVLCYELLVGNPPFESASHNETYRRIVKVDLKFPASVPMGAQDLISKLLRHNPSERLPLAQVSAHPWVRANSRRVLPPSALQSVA
- Sequence (Q9NQS7 821-918 partner): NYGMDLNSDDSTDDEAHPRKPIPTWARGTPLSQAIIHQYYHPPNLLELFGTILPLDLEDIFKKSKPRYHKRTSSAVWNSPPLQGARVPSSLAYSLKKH
- EXPERIMENT_SUMMARY: Aurora B/Incenp kinase activity, radioactive 33P incorporation into NuMA fragment
- TEST_CONDITIONS: read-out: IC50 Aurora B/Incenp
pIC50: −log10 of the molar value.
MEASUREMENT_LABEL: pIC50

COMPOUND	TARGET	NUMERIC_READOUT
CCOC(=O)c1[nH]cc2c1NC1=C(C(=O)CCC1)C2c1cccc(Oc2nc3ccccc3[nH]2)c1 (stereo not shown)	Aurora B/Incenp (Homo sapiens (Human), UniProt Q96GD4)	9.00

----------
- EXPERIMENT_SUMMARY: Metabolism in the presence of human microsomal liver fractions
- Assay type: in vitro ADME
- TEST_CONDITIONS: percentage disappearance, 5 μM, 20 minutes, 1 mg/ml proteins, NADPH

COMPOUND	Human microsome [%]
CCOC(=O)c1[nH]cc2c1NC1=C(C(=O)CCC1)C2c1cccc(Oc2nc3ccccc3[nH]2)c1 (stereo not shown) [Example 2]	32
CCOC(=O)c1[nH]cc2c1NC1=C(C(=O)CCC1)C2c1cccc(Oc2nc3ccccc3[nH]2)c1 (racemic) [Example 1]	37
CCOC(=O)c1[nH]cc2c1NC1=C(C(=O)CC(C)(C)C1)C2c1cccc(Oc2nc3ccccc3[nH]2)c1 (stereo not shown) [Example 7]	65
CCOC(=O)c1[nH]cc2c1NC1=C(C(=O)CC(C)(C)C1)C2c1cccc(Sc2nc3ccccc3[nH]2)c1 (stereo not shown) [Example 8]	80
CCOC(=O)c1[nH]cc2c1NC1=C(C(=O)CCC1)[C@@H]2c1ccc(Sc2nc3ccccc3[nH]2)o1 [Example 12]	75
CCOC(=O)c1[nH]cc2c1NC1=C(C(=O)CCC1)C2c1cccc(Sc2nc3ccccc3[nH]2)c1 (stereo not shown) [Example 4]	77
CCOC(=O)c1[nH]cc2c1NC1=C(C(=O)CCC1)C2c1ccc(Sc2nc3cccc(OC)c3[nH]2)o1 (stereo not shown) [Example 13]	53

----------
- Tested on: HCT116
- TEST_CONDITIONS: read-out: IC50 HCT116; HCT116, 96 hours treatment

MOLECULE	IC50 (nM)
CCOC(=O)c1[nH]cc2c1NC1=C(C(=O)CCC1)C2c1cccc(Oc2nc3ccccc3[nH]2)c1 (stereo not shown)	20

----------
Readings of IC50 for the listed molecules
- TARGET: Aurora A (Homo sapiens (Human), UniProt O14965)
- Sequence (O14965 whole entry, the tested form may be a part): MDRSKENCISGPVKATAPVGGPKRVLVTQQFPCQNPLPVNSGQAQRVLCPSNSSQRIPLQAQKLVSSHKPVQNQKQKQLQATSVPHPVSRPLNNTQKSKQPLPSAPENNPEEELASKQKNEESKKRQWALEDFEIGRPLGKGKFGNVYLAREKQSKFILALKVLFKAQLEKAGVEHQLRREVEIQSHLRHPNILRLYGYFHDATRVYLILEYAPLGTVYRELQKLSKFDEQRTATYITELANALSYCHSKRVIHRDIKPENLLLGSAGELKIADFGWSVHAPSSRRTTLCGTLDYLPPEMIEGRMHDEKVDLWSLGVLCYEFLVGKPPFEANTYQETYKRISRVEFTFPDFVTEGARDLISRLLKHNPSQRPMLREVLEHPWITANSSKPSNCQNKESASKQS
- EXPERIMENT_SUMMARY: Aurora A kinase activity, radioactive 33P incorporation into NuMA fragment
- TEST_CONDITIONS: read-out: IC50 Aurora A; 10 nM Aurora A, 1 μM ATP, 500 nM NuMA, 30 min at 37° C.
MEASUREMENT_LABEL: IC50 (nM)

MOLECULE	NUMERIC_READOUT
CC1(C)CC(=O)C2=C(C1)Nc1n[nH]cc1C2c1cccc(Oc2nc3ccccc3[nH]2)c1 (centres unmarked) [Example 10]	22
O=C1CCCC2=C1C(c1cccc(Oc3nc4ccccc4[nH]3)c1)c1c[nH]nc1N2 (centres unmarked) [Example 5]	23

----------
Readings of IC50 for the listed compounds
- TARGET: UniProtKB Q14432
- Sequence (Q14432 whole entry): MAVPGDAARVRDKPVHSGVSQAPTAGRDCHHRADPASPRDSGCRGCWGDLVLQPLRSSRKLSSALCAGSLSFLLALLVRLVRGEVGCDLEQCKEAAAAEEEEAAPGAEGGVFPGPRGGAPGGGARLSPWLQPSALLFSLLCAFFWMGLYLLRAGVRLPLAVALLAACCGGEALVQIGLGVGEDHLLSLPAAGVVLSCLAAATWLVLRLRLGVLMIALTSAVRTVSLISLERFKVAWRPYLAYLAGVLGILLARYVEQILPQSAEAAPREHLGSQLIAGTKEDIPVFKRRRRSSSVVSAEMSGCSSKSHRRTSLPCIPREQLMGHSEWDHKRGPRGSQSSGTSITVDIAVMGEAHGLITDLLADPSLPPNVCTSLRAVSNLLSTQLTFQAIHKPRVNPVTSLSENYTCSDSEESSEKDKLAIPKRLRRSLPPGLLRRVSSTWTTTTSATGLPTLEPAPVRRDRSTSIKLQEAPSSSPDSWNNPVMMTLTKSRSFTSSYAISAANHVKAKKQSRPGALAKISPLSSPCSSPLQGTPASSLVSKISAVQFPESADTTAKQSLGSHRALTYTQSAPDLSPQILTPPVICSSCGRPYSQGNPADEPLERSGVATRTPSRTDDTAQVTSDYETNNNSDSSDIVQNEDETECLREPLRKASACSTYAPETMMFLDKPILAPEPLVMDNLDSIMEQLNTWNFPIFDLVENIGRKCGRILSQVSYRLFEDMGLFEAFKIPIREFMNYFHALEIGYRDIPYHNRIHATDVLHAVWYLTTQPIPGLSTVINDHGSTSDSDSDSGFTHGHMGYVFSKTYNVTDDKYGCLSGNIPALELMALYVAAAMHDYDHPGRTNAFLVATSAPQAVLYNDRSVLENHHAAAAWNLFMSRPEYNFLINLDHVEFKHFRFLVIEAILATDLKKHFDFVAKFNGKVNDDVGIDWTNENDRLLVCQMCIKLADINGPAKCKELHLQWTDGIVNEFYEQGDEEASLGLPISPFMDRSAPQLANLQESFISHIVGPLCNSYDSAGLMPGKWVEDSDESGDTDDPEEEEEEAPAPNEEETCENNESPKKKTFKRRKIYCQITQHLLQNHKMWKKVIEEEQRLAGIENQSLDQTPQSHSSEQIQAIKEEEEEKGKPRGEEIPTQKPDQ
- EXPERIMENT_SUMMARY: Effect on the activity of the enzyme PDE3 (CEREP, HTRF)
- TEST_CONDITIONS: read-out: IC50 PDE3; recombinant PDE3A, substrate cAMP
MEASUREMENT_LABEL: IC50

COMPOUND	TARGET	RESULT
CCOC(=O)c1[nH]cc2c1NC1=C(C(=O)CCC1)[C@@H]2c1ccc(Sc2nc3ccccc3[nH]2)o1 [Example 12]	UniProtKB Q14432	0.068 µM
CCOC(=O)c1[nH]cc2c1NC1=C(C(=O)CCC1)C2c1cccc(Oc2nc3ccccc3[nH]2)c1 (centres unmarked) [Example 2]	UniProtKB Q14432	4 µM

Data credit: patent US9073917B2
